B1: SMTNL2 (parent)
chain: AFTMAENLANCERLIEVEDMMVMG

# Variants of: B1
# procedure_text: protein stability index of a GFP-peptide fusion (GPS, HEK-293T) (PSI 1-6); higher = more stable;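 further: lentivirally expressed fusions sorted by FACS into six bins by GFP to DsRed ratio, PSI derived from sequencing read proportions per bin multiplied by bin number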
# condition_notes: c terminus: a fixed tail appended
Label Condition not met if protein stability index falls below 3; label Condition met in every other case.

Recorded results for 3 variants are shown here.
1. I15G | Condition met
2. E16P | Condition not met
3. V17T | Condition met

Challenge: // inclusive: protein stability index at least 3? input: A1Q
Response given: Condition met

Challenge: // inclusive: protein stability index at least 3? input: F2S
Response given: Condition met

Challenge: // inclusive: protein stability index at least 3? input: M21T
Response given: Condition not met

Challenge: // inclusive: protein stability index at least 3? input: R13S
Response given: Condition met

Challenge: // inclusive: protein stability index at least 3? input: G24P
Response given: Condition not met

Challenge: // inclusive: protein stability index at least 3? input: M4V
Response given: Condition met

Challenge: // inclusive: protein stability index at least 3? input: M23A
Response given: Condition not met

These measurements were taken from the supplement of paper PMC10567573.
